Substrate: vinyl butyrate
experimental-conditions: pH 7; 25 °C
measured-property: kcat/Km (M⁻¹ s⁻¹)
Lab book: enter the figure in M⁻¹ s⁻¹, no units written.

Consider the following illustrative entries.
protein	units-of-measure	kcat/Km
unnamed (protein) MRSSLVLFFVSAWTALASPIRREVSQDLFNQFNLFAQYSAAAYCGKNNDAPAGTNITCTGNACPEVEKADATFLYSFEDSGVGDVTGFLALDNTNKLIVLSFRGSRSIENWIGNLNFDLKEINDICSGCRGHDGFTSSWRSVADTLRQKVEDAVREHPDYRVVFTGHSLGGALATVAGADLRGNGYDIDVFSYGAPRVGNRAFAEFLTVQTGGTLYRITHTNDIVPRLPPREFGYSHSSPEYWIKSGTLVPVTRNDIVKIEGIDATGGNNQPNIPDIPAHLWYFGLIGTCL	M⁻¹ s⁻¹	130000
unnamed (protein) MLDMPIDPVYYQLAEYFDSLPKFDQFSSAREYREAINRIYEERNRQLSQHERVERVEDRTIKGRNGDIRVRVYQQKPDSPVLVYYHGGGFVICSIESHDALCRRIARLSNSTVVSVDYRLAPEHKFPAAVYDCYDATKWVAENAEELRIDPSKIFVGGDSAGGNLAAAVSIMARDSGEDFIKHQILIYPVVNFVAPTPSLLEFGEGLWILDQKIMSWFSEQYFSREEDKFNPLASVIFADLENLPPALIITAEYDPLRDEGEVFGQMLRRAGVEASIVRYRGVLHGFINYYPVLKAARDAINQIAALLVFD	M⁻¹ s⁻¹	84000

# input for lookup
unnamed (protein) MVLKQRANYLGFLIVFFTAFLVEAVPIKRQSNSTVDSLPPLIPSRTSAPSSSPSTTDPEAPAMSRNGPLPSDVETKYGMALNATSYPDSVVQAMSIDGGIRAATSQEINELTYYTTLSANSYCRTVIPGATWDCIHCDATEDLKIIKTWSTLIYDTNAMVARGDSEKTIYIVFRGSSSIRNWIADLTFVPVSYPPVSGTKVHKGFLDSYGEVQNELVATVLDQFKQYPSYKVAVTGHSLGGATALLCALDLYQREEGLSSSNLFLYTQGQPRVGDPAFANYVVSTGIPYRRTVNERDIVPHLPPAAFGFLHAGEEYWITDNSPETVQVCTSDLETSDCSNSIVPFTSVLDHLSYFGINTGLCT yielded kcat/Km of 359000
